Data origin: PubChem BioAssay (NCI)

Tested on: U251 CNS
Experiment: NCI-60 one-dose screen, 48 h
Details: 10 µM unless noted
The panel holds about 83,000 compounds, 20% with a hit somewhere; the sample as a whole holds those more often. Activity calls are given as the source filed them. How the source made its calls: active means growth percent below 10; inactive means the rest.
Assign a class; possible classes are 1 for active, -1 for inactive

As a guide, the following entries are already answered.
{"columns": ["Molecule", "Label"],
 "data": [
  ["C=C1CC[C@@H]2[C@](C)(CO)[C@H](O)CC[C@@]2(C)[C@@H]1C/C(O)=C1\\CCOC1=O", -1],
  ["C=C1CC[C@@H]2[C@]3(C)COC(c4ccccc4)O[C@@H]3CC[C@@]2(C)[C@@H]1C/C=C1/C(=O)OC[C@H]1O (some centres not stated)", -1]
]}

QUERY: # lookup: test call for "NC(N)=Nc1ccc(Oc2cccc(Nc3ccc(Cl)cc3)c2)cn1"
RESULT: 1

QUERY: Per the records of this test, what outcome belongs to "O=C(CN1CCN(c2cc(=O)n(-c3ccccc3)c3ccccc23)CC1)Nc1nc(-c2ccccc2)cs1" ?
RESULT: -1

QUERY: Which outcome did this test record for the molecule "CCCCCc1ccc(S(=O)(=O)Nc2cccc(-c3csc(NC(=O)CCCCCN4CCN(CCO)CC4)n3)c2)cc1" ?
RESULT: -1

QUERY: Hi, sorry to bother you, what did the test record for COc1c(N2CC3CCCNC3C2)c(F)cc2c(=O)c(C(=O)N/N=C/c3c[nH]c4ccccc34)cn(C3CC3)c12 (configuration not stated) ?
RESULT: -1

QUERY: What call does the record list for "NS(=O)(=O)c1ccc(-n2cc(-c3cccc(NC(=O)c4ccc(N5CCOCC5)c(C(F)(F)F)c4)c3)nn2)cc1" ?
RESULT: -1

QUERY: Fill in: this test's call for "Clc1cccc(/C=N/Nc2nc(N/N=C/c3cccc(Cl)c3Cl)nc(N3CCCCC3)n2)c1Cl" is ___
RESULT: -1

QUERY: Check the results log: what was the call for "Nn1c(N/N=C/c2nc3ccccc3s2)n[nH]c1=S" ?
RESULT: -1

QUERY: Hi, sorry to bother you, what did the test record for "NC/C(=C/F)COc1ccc2nc(NCc3cccnc3)oc2c1" ?
RESULT: -1

QUERY: Outcome logged for "O=C(CN1CCN(c2cc(=O)n(-c3ccccc3)c3ccccc23)CC1)Nc1cccc(C(F)(F)F)c1" in this assay:
RESULT: -1

QUERY: For "NC(N)=Nc1ccc(Oc2cccc(Nc3cccc(C(F)(F)F)c3)c2)cn1" , which call appears in the assay record?
RESULT: 1
